These measurements were taken from paper PMC4287973.

The reader will find IC50 measurements below, all made with UniProtKB Q9H0M0.
Sequence (Q9H0M0 588-922 limits assumed, species assumed): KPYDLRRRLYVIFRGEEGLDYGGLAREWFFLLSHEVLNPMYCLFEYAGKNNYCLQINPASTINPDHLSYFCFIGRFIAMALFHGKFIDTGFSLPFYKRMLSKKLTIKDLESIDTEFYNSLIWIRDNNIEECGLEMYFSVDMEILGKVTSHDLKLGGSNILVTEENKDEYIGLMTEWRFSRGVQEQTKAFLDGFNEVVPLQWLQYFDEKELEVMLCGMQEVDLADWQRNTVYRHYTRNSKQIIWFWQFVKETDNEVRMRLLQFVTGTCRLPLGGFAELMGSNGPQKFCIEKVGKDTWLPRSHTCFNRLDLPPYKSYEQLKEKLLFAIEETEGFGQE

smiles.str | property | result
Cc1c(C(=O)Nc2ccc(CN)cc2)ncnc1N1CCC(C#N)(c2ccccc2)CC1 | IC50 | > 50 µM

Here is another molecule to look at.
Data request: Lab note: need IC50 with UniProtKB Q9H0M0 for entry NCc1cccc(CNc2ncnc3c(N4CCN(Cc5ccccc5)CC4)ncnc23)c1 , please look it up.
Data returned: > 50 µM

* * *

- tested.system: UniProtKB Q05086
- Sequence (Q05086 518-875 limits assumed): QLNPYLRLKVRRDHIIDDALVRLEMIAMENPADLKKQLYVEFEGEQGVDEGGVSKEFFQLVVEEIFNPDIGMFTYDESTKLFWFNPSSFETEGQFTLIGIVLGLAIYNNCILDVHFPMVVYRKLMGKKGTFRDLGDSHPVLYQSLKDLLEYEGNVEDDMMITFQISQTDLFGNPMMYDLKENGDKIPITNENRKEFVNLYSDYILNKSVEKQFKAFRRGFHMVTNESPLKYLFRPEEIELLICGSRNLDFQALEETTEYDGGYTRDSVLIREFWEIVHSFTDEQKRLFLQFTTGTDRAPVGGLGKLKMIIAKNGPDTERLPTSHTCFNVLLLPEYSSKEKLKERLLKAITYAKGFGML
pIC50: −log10 of the molar value.
property: pIC50

compound | pIC50
NCc1cccc(CNc2ncnc3c(N4CCN(Cc5ccccc5)CC4)ncnc23)c1 [BI8626] | < 4.30

Now consider a different compound.
Data request: Query for UniProtKB Q05086: what pIC50 does the record show for Cc1c(C(=O)Nc2ccc(CN)cc2)ncnc1N1CCC(C#N)(c2ccccc2)CC1 [BI8622] ?
Data returned: < 4.30
